system: PXR:RXRa (NR concentration 270 nM, RXRa partner concentration 90 nM); assay: PBM binding z-score (relative to random genomic background probes); higher = stronger binding; sequences stand for … in GC…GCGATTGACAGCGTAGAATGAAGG
Catalogue of sequences with associated PBM binding z-score
Number, no unit, nothing else.

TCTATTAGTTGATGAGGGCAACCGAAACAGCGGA
0.877
TGAATGAGGTTATAAGAGCAGGGAACGTTGCAAA
0.661
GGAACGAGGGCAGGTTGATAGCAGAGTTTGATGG
0.273
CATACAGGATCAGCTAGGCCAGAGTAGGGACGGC
-0.609
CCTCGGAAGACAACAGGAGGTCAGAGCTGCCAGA
1.62
CGGACTGGGGCATAAGGTTACCATAAGCCAGCCC
0.635
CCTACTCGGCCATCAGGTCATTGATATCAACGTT
2.02
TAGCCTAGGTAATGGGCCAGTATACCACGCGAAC
-0.351
TCGAGTATGTTACCAATGGGGCATTCAGCTTTCT
0.0821
GCTTGTAGATCAATGTTAAGAAAGACTAAGCTAA
-0.629

Q: Which value of PBM binding z-score has been reported for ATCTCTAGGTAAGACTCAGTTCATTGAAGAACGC in the records?
Result: 2.6

Q: GET /values?readout=PBM binding z-score&item= CGTCCATGGTCAGAGAGGTCAGTGAATGCCGAGT
Result: 3.11

###

test system: RXRa DBDmut IVT, anti-RXR (DBD mutation: RXRa K156A/R161A, NR concentration 90 nM); assay: PBM binding z-score (relative to random genomic background probes); higher = stronger binding; sequences stand for … in GC…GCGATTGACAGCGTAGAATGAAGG
sequences and their reported PBM binding z-score
The response must contain the number and no unit.

ACTATTAGCTGACTTAGGGCAACCGATACGACGC
0.619
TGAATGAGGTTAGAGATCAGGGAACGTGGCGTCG
-0.0534

Q: Item: ATATGTTGGTTACATCCGGGTCATTCAGGCTATG Test system: RXRa DBDmut IVT, anti-RXR (DBD mutation: RXRa K156A/R161A, NR concentration 90 nM) Read-out: PBM binding z-score Value: ?
Result: 0.674

Q: Give the reported PBM binding z-score for CATACAGGGTCAGCTAGGCCAGAATAGGGACGGC (system: RXRa DBDmut IVT, anti-RXR (DBD mutation: RXRa K156A/R161A, NR concentration 90 nM)).
Result: 1.53

Q: Report PBM binding z-score for TGTCAAAGTTCACAGGTAACGTAAGTATCCACAC tested on RXRa DBDmut IVT, anti-RXR (DBD mutation: RXRa K156A/R161A, NR concentration 90 nM).
Result: 3.69

Q: Field: PBM binding z-score (RXRa DBDmut IVT, anti-RXR (DBD mutation: RXRa K156A/R161A, NR concentration 90 nM)). Entry: GGAACGAAGGCAAGTTGATAGCAGAGTTTGATGG
Result: 0.098

Q: Query the reported PBM binding z-score for RXRa DBDmut IVT, anti-RXR (DBD mutation: RXRa K156A/R161A, NR concentration 90 nM); item: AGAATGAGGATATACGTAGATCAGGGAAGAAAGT
Result: -0.474

Q: Record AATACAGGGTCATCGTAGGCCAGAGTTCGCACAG : what is its PBM binding z-score with RXRa DBDmut IVT, anti-RXR (DBD mutation: RXRa K156A/R161A, NR concentration 90 nM)?
Result: 3.68

###

test system: PPARg:RXRa DBDmut IVT, anti-RXR (DBD mutation: RXRa K156A/R161A, NR concentration 270 nM, RXRa partner concentration 90 nM); test: PBM binding z-score (relative to random genomic background probes); higher = stronger binding; sequences stand for … in GC…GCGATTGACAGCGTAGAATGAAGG
In this section, each of the sequences is paired with its reported PBM binding z-score.
Response field accepts a number only; no unit should be typed.

Solved cases below.
CCTTACGGGTCACTCCAGGTTAGAGCATCGGAGT
2.67
GGAACGAGGGCATTCGAGCTGATAGCATGGCGAT
2.71
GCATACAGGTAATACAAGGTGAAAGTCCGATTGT
0.771
GCTGCTAGGTCAGGTTGCTCAGCTAACGGGTACG
2.92
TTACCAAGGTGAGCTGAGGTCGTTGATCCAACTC
1.28
CCTAGAAGGCCAATCTGGGTCACTCAAGGCTTGA
3.74
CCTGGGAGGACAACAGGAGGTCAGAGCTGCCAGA
-0.657
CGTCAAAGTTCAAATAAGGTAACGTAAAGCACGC
0.597
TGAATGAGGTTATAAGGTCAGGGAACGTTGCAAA
2.58
CCTTACGGGTCACTGACAGGTTTTAGCATTTGGA
3.46

Q: // PBM binding z-score lookup, key: TCTTGTAGATCAGCAGGTTAAGACAGCTGGCCAA
Result: 1.91

Q: Item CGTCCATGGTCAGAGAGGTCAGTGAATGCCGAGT has what recorded PBM binding z-score?
Result: 0.536

###

tested on: PPARg:RXRa DBDmut IVT, anti-RXR (DBD mutation: RXRa K156A/R161A, NR concentration 270 nM, RXRa partner concentration 90 nM); experiment: PBM binding z-score (relative to random genomic background probes); higher = stronger binding; sequences stand for … in GC…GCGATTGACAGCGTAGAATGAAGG
Measured PBM binding z-score of individual entries
// return just the number, without any unit appended

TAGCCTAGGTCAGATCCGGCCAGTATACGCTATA
0.634
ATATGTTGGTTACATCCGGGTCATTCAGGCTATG
1.41
ACTATGAGTTGAGACGAGGGCAACCGATAGGTTG
-0.225
TAGCCTAGGTCATGCGGGCCAGTATTGTGTCGGC
1.92
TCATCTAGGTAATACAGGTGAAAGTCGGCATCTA
4.07

Q: Entry ACTCGCAGGCCAAGTTTGGGTCACTCAAACAAAG : reported PBM binding z-score = ?
Result: 0.227

Q: Which PBM binding z-score reading was recorded for the sequence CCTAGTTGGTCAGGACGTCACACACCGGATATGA ?
Result: 0.48

Q: Tell me the measured PBM binding z-score of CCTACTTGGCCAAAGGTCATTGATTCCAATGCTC , please.
Result: 2.53

Q: GET /values?readout=PBM binding z-score&item= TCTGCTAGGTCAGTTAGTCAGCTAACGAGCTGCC
Result: 2.31

Q: Look at this sequence and give its reported PBM binding z-score. GCTGCCAGGTCAACTGATGGTCAGCTAAAGCTCG
Result: 2.71

###

test system: PPARa:RXRa (NR concentration 270 nM, RXRa partner concentration 90 nM); test: PBM binding z-score (relative to random genomic background probes); higher = stronger binding; sequences stand for … in GC…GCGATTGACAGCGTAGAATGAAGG
metric: PBM binding z-score
Enter a number only.

# annotated cases, reported PBM binding z-score shown
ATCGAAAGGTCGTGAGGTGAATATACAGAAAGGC
5.66
TCATGTAGATCAAAGGTTAAGAAAGCCGAAGCCT
4.5
CCTCGGAGGATAACAGGAGGTCAGAGCTGCCAGA
1.61
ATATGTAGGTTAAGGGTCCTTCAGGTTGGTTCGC
4.59

Next item in the queue.
Q: Form entry - test system: PPARa:RXRa (NR concentration 270 nM, RXRa partner concentration 90 nM); read-out: PBM binding z-score; sequence: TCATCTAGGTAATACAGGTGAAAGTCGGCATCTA
Result: 2.05

###

tested on: THRa homodimer (NR concentration 90 nM); experiment: PBM binding z-score (relative to random genomic background probes); higher = stronger binding; sequences stand for … in GC…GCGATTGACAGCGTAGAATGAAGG
Classify by measured PBM binding z-score: 1.0 if it is equal to or exceeds 0.6, 0.0 if it is smaller.

Some solved entries appear below for comparison.
GCTATTAGTTGAAAAGGCAACCGAATGATTCTCG
0.0
AGTCAAAGTTCAGCTAGGTAACGTAAGATATGCT
0.0
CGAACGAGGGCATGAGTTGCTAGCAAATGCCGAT
0.0

Q: Has TAGCCTAGGTCAGATCGGGCCAGTAAACGCTATA a recorded PBM binding z-score greater than or equal to 0.6?
Result: 0.0

Q: Is it the case that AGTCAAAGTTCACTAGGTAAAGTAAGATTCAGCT has PBM binding z-score reaching or exceeding 0.6?
Result: 0.0

Q: Please check the record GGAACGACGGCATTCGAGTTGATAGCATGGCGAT and state if its PBM binding z-score is at or above 0.6.
Result: 0.0

Q: Is the recorded value of PBM binding z-score equal to or greater than 0.6 for this sequence? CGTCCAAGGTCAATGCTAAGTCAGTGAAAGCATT
Result: 1.0

Q: Does the sequence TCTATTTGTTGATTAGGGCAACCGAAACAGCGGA have recorded PBM binding z-score that is 0.6 or more?
Result: 0.0

Q: Can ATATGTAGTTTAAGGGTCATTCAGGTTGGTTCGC be said to have PBM binding z-score at or above 0.6?
Result: 1.0

Q: Could you verify whether the entry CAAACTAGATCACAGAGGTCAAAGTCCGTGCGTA shows PBM binding z-score of no less than 0.6?
Result: 1.0

Q: Entry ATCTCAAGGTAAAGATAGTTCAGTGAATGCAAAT : is its PBM binding z-score no less than 0.6?
Result: 0.0

Q: # bool: PBM binding z-score of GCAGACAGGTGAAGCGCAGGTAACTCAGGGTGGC >= 0.6
Result: 0.0
